Tested on: hsa-mir-221 loop
Procedure text: normalised indicator fluorescence (fraction of RNA + indicator signal without compound); higher = less displacement of indicator (weaker competition)
Condition details: compound concentration: 5 uM; 30 min; indicator: TO-PRO-3 0.5 uM; RNA concentration: 0.5 uM
Where a name gives a salt, the structure may show the parent alone.
Listed compounds paired with reported normalised indicator fluorescence
Measurement label: normalised indicator fluorescence

Compound	Tested target	Observed measurement
C[C@@H]1O[C@@H](O[C@@H]2[C@@H](O)[C@H](OCCc3ccc(O)c(O)c3)O[C@H](CO)[C@H]2OC(=O)/C=C/c2ccc(O)c(O)c2)[C@H](O)[C@H](O)[C@H]1O [Verbascoside]	hsa-mir-221 loop	0.949
C1CCN2C[C@@H]3C[C@@H](CN4CCCC[C@@H]34)[C@H]2C1 [(-)-Sparteine sulfate pentahydrate]	hsa-mir-221 loop	1.06
CCNC(=O)c1noc(-c2cc(Cl)c(O)cc2O)c1-c1ccc(OC)cc1	hsa-mir-221 loop	0.964
C[C@H]1Oc2cc(cnc2N)-c2c(nn(C)c2C#N)CN(C)C(=O)c2ccc(F)cc21	hsa-mir-221 loop	1.02

----------
Test system: hsa-mir-6850 loop
Procedure text: normalised indicator fluorescence (fraction of RNA + indicator signal without compound); higher = less displacement of indicator (weaker competition)
Condition details: compound concentration: 5 uM; 30 min; indicator: TO-PRO-1 0.1 uM; RNA concentration: 0.1 uM
Counter-ions that a name gives are not always drawn.
Measurement label: normalised indicator fluorescence

>>> df
                                    compound  observed_measurement
 0  CC1(C)C=Cc2c(ccc3c2OC[C@@H](c2ccc(O)cc2O)C3)O1                 0.981
 1  CNc1ccc([N+](=O)[O-])c(Nc2ccc3[nH]ncc3c2)n1                  0.93
 2  CCNC(=O)c1noc(-c2cc(C(C)C)c(O)cc2O)c1-c1ccc(CN2CCOCC2)cc1                  1.01
 3  Cc1cc(NC(=O)c2cccc(NC(=O)/C=C/CN(C)C)c2)ccc1Nc1nccc(-c2cccnc2)n1                  1.06
 4  COc1ccc(C2CC(=O)c3c(O)cc(OC4OC(COC5OC(C)C(O)C(O)C5O)C(O)C(O)C4O)cc3O2)cc1OC (stereo not drawn)                 0.967
 5  Cc1c(F)cc(C(=O)NC2CC2)cc1-c1ccc(C(=O)NCC(C)(C)C)cn1                  0.95
 6  COc1ccc(-c2nc(-c3cc(C(F)(F)F)cc(C(F)(F)F)c3)n(Cc3ccc(C(N)=O)cc3)c2-c2ccc(OC)cc2)cc1                 0.966
 7      O=c1cc(-c2ccc(O)cc2)oc2cc(O)cc(O)c12                 0.954
 8  COC(=O)C1=CC[C@@]23CC[C@@H]([C@@](C)(/C=C/C=C(\C)C(=O)O)OC2=O)[C@@]3(OC(C)=O)CC1                  1.03
 9  O=C1O[C@H]([C@@H](O)CO)C(O)=C1O [L(+)-Ascorbic acid]                  1.09
10  N=C(NCCCCCCNC(=N)NC(=N)Nc1ccc(Cl)cc1)NC(=N)Nc1ccc(Cl)cc1 [Chlorhexidine hydrochloride]                 0.906
11  CC(C)N(CCCCOCC(=O)NS(C)(=O)=O)c1cnc(-c2ccccc2)c(-c2ccccc2)n1                   1.1
12  CO[C@@H]1[C@H](N(C)C(=O)c2ccccc2)C[C@H]2O[C@]1(C)n1c3ccccc3c3c4c(c5c6ccccc6n2c5c31)C(=O)NC4                  1.02
13  Cn1cc(-c2ccc3c(c2)CCN3C(=O)Cc2cccc(C(F)(F)F)c2)c2c(N)ncnc21                 0.993
14  O=C(O)C(O)Cc1ccc(O)c(O)c1 (stereo not drawn) [Sodium Danshensu]                 0.964
15  NC(=O)c1ccc(N(C(N)=O)c2c(F)cccc2F)nc1-c1ccc(F)cc1F                  0.94
16  N=C(NCCCCCCNC(=N)NC(=N)Nc1ccc(Cl)cc1)NC(=N)Nc1ccc(Cl)cc1 [Chlorhexidine]                  0.83
17  CN1CCN(c2nc(C3=C(c4c[nH]c5ccccc45)C(=O)NC3=O)c3ccccc3n2)CC1                 0.954
18                     Oc1ccc(OCc2ccccc2)cc1                 0.909
19  COc1ccc([C@@H]2OC[C@H]3[C@@H]2CO[C@@H]3c2ccc(O[C@@H]3O[C@H](CO)[C@@H](O)[C@H](O)[C@H]3O)c(OC)c2)cc1OC                 0.927
20   Oc1ccc(OC2CCCCO2)cc1 (stereo not drawn)                 0.979
21  C[C@@H]1O[C@@H](Oc2c(-c3cc(O)c(O)c(O)c3)oc3cc(O)cc(O)c3c2=O)[C@H](O)[C@H](O)[C@H]1O                 0.944
22  COC1=C2C[C@@H](C)C[C@H](OC)[C@H](O)[C@@H](C)/C=C(\C)[C@H](OC(N)=O)[C@@H](OC)/C=C\C=C(/C)C(=O)NC(=CC1=O)C2=O                  1.09
23  CN(C)CCCN1c2ccccc2CCc2ccc(Cl)cc21 [Clomipramine hydrochloride]                 0.864
24                             COc1ccc(O)cc1                 0.977
25  Oc1cc(O)c2c(c1)O[C@H](c1ccc(O)c(O)c1)[C@@H](O)C2 [(+)-Catechin Hydrate]                 0.975
26  CN(NC(=O)CC(=O)NN(C)C(=S)c1ccccc1)C(=S)c1ccccc1                  1.02
27  CCNC(=O)c1noc(-c2cc(Cl)c(O)cc2O)c1-c1ccc(OC)cc1                  1.03
28  CC(=O)O[C@H]1C[C@@]2(C)[C@@H](C[C@@H](O)[C@H]3[C@@]4(C)CC[C@@H](O)[C@@H](C)[C@@H]4CC[C@@]32C)/C1=C(\CCC=C(C)C)C(=O)O                  1.06
29             O=C(O)/C=C/c1ccc(Cn2ccnc2)cc1                 0.929
30   O=c1ccc2ccc(O)cc2o1 [7-Hydroxycoumarin]                 0.986
31                   CC1=NN(c2ccccc2)C(=O)C1                  1.05
32         O=CN1CC/C(=C/c2ccc3c(c2)OCO3)C1=O                     1

----------
Tested on: hsa-mir-21 loop
Procedure text: normalised indicator fluorescence (fraction of RNA + indicator signal without compound); higher = less displacement of indicator (weaker competition)
Condition details: compound concentration: 5 uM; 30 min; indicator: TO-PRO-1 0.1 uM; RNA concentration: 0.1 uM
Listed compounds paired with reported normalised indicator fluorescence
Measurement label: normalised indicator fluorescence

                                 cpd_smiles  observed_measurement
0      O=c1cc(-c2ccc(O)cc2)oc2cc(O)cc(O)c12                 0.934
1   CCc1oc2ccccc2c1C(=O)c1cc(Br)c(O)c(Br)c1                 0.927
2  COc1ccc(-c2nc(-c3cc(C(F)(F)F)cc(C(F)(F)F)c3)n(Cc3ccc(C(N)=O)cc3)c2-c2ccc(OC)cc2)cc1                  1.01
3  Cn1cc(-c2ccc3c(c2)CCN3C(=O)Cc2cccc(C(F)(F)F)c2)c2c(N)ncnc21                  1.06
4  Oc1ccc(-c2nc(-c3ccc(F)cc3)c(-c3ccncc3)[nH]2)cc1                 0.993

----------
Test system: hsa-mir-21 loop
Procedure text: normalised indicator fluorescence (fraction of RNA + indicator signal without compound); higher = less displacement of indicator (weaker competition)
Condition details: compound concentration: 5 uM; 30 min; indicator: TO-PRO-3 0.5 uM; RNA concentration: 0.5 uM
Listed molecules paired with reported normalised indicator fluorescence

Molecule	normalised indicator fluorescence
CCNC(=O)c1noc(-c2cc(C(C)C)c(O)cc2O)c1-c1ccc(CN2CCOCC2)cc1 [Luminespib]	1.02
CCNC(=O)c1[nH]nc(-c2cc(Cl)c(O)cc2O)c1-c1ccc(OC)cc1	1.06
C[S+]([O-])c1ccc(-c2nc(-c3ccc(F)cc3)c(-c3ccncc3)[nH]2)cc1 (centres undefined)	1.02
C[C@@H]1O[C@@H](O[C@@H]2[C@@H](O)[C@H](OCCc3ccc(O)c(O)c3)O[C@H](CO)[C@H]2OC(=O)/C=C/c2ccc(O)c(O)c2)[C@H](O)[C@H](O)[C@H]1O [Verbascoside]	1.01
